Recorded Total Cell Count values for a group of compounds are listed next.
Test system: Fibroblast
Assay: Multiplex assay against human fibroblast
Assay type: toxicity, cell-based
Conditions: 12 h, 1 µM, compound concentration 1 uM, replicate 1

Consider the following illustrative entries.
N#Cc1c(Oc2cccc(OS(=O)(=O)CCCC(F)(F)F)c2)cccc1C(F)(F)F :: 146
COc1ccccc1N1CCN(C[C@@H](C(=O)NC(C)(C)C)c2ccccc2)CC1.Cl.Cl :: 141
Cl.NCCc1ccc(O)c(O)c1 [DOPAMINE HYDROCHLORIDE] :: 115
COc1cccc2c1c(NS(=O)(=O)c1ccc(Cl)s1)nn2Cc1cccc(CNC(=O)C(C)(C)O)c1 :: 134
COC[C@@H](c1ccc(C(F)(F)F)cc1)N1CCN(C2(C)CCN(C(=O)c3c(C)ncnc3C)CC2)C[C@@H]1C.O=C(O)/C=C\C(=O)O [VICRIVIROC MALEATE] :: 138

**Q:** Dear colleague, please send me the reported Total Cell Count for CCCCC1=NC2(CCCC2)C(=O)N1Cc1ccc(-c2ccccc2-c2nnn[nH]2)cc1 [IRBESARTAN] when you can.
**A:** 159

**Q:** Dear colleague, please send me the reported Total Cell Count for Cc1c(CC(=O)O)c2cccnc2n1Cc1ccc(S(C)(=O)=O)cc1C(F)(F)F [FEVIPIPRANT] when you can.
**A:** 156

**Q:** Dear colleague, please send me the reported Total Cell Count for `Cc1cccc(NC(=O)CN2CCC(c3ccccn3)CC2)c1.Cl.Cl` when you can.
**A:** 140

**Q:** Dear colleague, please send me the reported Total Cell Count for `Cc1noc(-c2ccc(-c3ccc(CC(=O)O)cc3)cc2)c1NC(=O)O[C@H](C)c1ccccc1Cl` when you can.
**A:** 106

**Q:** Dear colleague, please send me the reported Total Cell Count for `O=C1[C@H](Cc2ccc(O)cc2)N2C(=O)CCN(C(=O)NCc3ccccc3)[C@H]2CN1Cc1cccc2ccccc12` when you can.
**A:** 160

**Q:** Dear colleague, please send me the reported Total Cell Count for CC(C)COc1ccc(CNC(=O)N(Cc2ccc(F)cc2)C2CCN(C)CC2)cc1 [PIMAVANSERIN] when you can.
**A:** 179

====

System: U2OS
Test: Multiplex assay against U2OS
Format: toxicity, cell-based
Conditions: human, 24 h, 1 µM, compound concentration 1 uM, replicate 1
Recorded Population Pyknosed Nuclei (%) values for a group of compounds are listed next.
All answers are understood in %, so give the number only.

COC[C@@H](c1ccc(C(F)(F)F)cc1)N1CCN(C2(C)CCN(C(=O)c3c(C)ncnc3C)CC2)C[C@@H]1C.O=C(O)/C=C\C(=O)O [VICRIVIROC MALEATE] :: 7
Cc1onc(-c2ccccc2Cl)c1C(=O)N(C)c1ccc(Cl)cc1 :: 5
CN(C)C(=O)Cn1cc(-c2ccc(-c3cncc4ccccc34)cc2)cn1 :: 8
O=C(NCCN1CCC(n2c(=O)[nH]c3cc(Cl)ccc32)CC1)c1ccc(F)cc1 [HALOPEMIDE] :: 9
Cc1sc2c(c1C)C(c1ccc(Cl)cc1)=N[C@@H](CC(=O)NCCCCCCCCNC(=O)COc1cccc3c1C(=O)N(C1CCC(=O)NC1=O)C3=O)c1nnc(C)n1-2 (stereo not given in full) :: 6

**Q:** Dear colleague, please send me the reported Population Pyknosed Nuclei (%) for `O=C(CCCc1ccccc1)Nc1nc2ccccc2c(=O)s1` when you can.
**A:** 9

**Q:** Dear colleague, please send me the reported Population Pyknosed Nuclei (%) for `CC[C@@H](C)Nc1nc(C)nc2c(-c3ccc(OC)nc3C)c(C)nn12` when you can.
**A:** 8

**Q:** Dear colleague, please send me the reported Population Pyknosed Nuclei (%) for Br.CS(=O)(=O)Nc1c(O)ccc2c1CCCC2C1=NCCN1 (stereo not given) when you can.
**A:** 7

**Q:** Dear colleague, please send me the reported Population Pyknosed Nuclei (%) for `CN1CCN(c2cc(-c3ccccc3)nc(N)n2)CC1` when you can.
**A:** 8

**Q:** Dear colleague, please send me the reported Population Pyknosed Nuclei (%) for `CCc1cc2cc(NS(=O)(=O)c3ccc(C#N)cc3)ccc2n(CC)c1=O` when you can.
**A:** 8
